Values compiled from ChEMBL document CHEMBL4811220.

- Test system: Plasmodium berghei
- EXPERIMENTAL_PROTOCOL: Antimalarial activity against Plasmodium berghei QIMR infected in BALB/c mouse assessed as reduction in peripheral blood parasitemia at 25 mg/kg, po bid for 4 days starting from 2 hrs post infection and measured on 4 to 6 days post-infection by Giemsa staining based microscopic analysis relative to control
- Type: functional
- EXPERIMENTAL_SETUP: time 4-6 day
REPORTED_ENDPOINT: inhibition in vivo at 25 mg/kg (%)
Give bare numbers, in %.

SAMPLE_SMILES | REPORTED_ENDPOINT | ENDPOINT_VALUE
Cc1ccc(C(=O)N(CC(=O)NC2CCCCC2)Cc2ccc(C(=O)NO)cc2)c(C)c1 | inhibition in vivo at 25 mg/kg | 31
O=C(CN(Cc1ccc(C(=O)NO)cc1)C(=O)c1cccc2ccccc12)NCc1ccccc1 | inhibition in vivo at 25 mg/kg | 25.9
CC(C)c1ccc(C(=O)N(Cc2ccc(C(=O)NO)cc2)C(C)(C)C(=O)NC2CCCCC2)cc1 | inhibition in vivo at 25 mg/kg | 0.5
Cc1ccc(C(=O)N(CC(=O)NCc2ccccc2)Cc2ccc(C(=O)NO)cc2)c(C)c1 | inhibition in vivo at 25 mg/kg | 17.6

inhibition in vivo at 25 mg/kg of CNC(=O)CN(Cc1ccc(C(=O)NO)cc1)C(=O)c1ccc(C(C)C)cc1 , assay on Plasmodium berghei, is 33.3

* * *

- EXPERIMENTAL_PROTOCOL: Selective index, ratio of IC50 for human HepG2-A16-CD81EGFP cells to IC50 for antiplasmodial activity against liver stage exo-erythrocytic forms of Plasmodium berghei sporozoites infected in human HepG2-A16-CD81EGFP cells
Quick rule: selectivity ratio of at least 20 means condition met, below that means condition not met.

Use these answered entries as a reference point.
SAMPLE_SMILES | CLASS
CNC(=O)CN(Cc1ccc(C(=O)NO)cc1)C(=O)c1ccc(C(C)C)cc1 | condition not met
O=C(CN(Cc1ccc(C(=O)NO)cc1)C(=O)Cc1ccccc1)NC1CCCCC1 | condition met
CC(C)c1ccc(CC(=O)N(CC(=O)NC2CCCCC2)Cc2ccc(C(=O)NO)cc2)cc1 | condition not met
Cc1ccc(C(=O)N(CC(=O)NCc2ccccc2)Cc2ccc(C(=O)NO)cc2)c(C)c1 | condition met

Query block: Please check the record Cc1ccc(C(=O)N(CC(=O)NC2CCCCC2)Cc2ccc(C(=O)NO)cc2)c(C)c1 and state if its selectivity ratio is at or above 20.
Result block: condition met

Query block: Determine whether measured selectivity ratio meets or exceeds 20 for CC(C)c1ccc(CC(=O)N(CC(=O)NCc2ccccc2)Cc2ccc(C(=O)NO)cc2)cc1
Result block: condition not met

Query block: Could you please find out whether Cc1cc(C)cc(C(=O)N(CC(=O)N2CCCCC2)Cc2ccc(C(=O)NO)cc2)c1 has selectivity ratio that meets 20 or exceeds it?
Result block: condition not met

* * *

- EXPERIMENTAL_PROTOCOL: Selective index, ratio of IC50 for human HepG2-A16-CD81EGFP cells to IC50 for antiplasmodial activity against liver stage exo-erythrocytic forms of Plasmodium berghei sporozoites infected in human HepG2-A16-CD81EGFP cells
REPORTED_ENDPOINT: selectivity ratio
Answers are plain numbers.

SAMPLE_SMILES | selectivity ratio
O=C(CN(Cc1ccc(C(=O)NO)cc1)C(=O)Cc1ccccc1)NCc1ccccc1 | 24
CC(C)c1ccc(C(=O)N(CC(=O)NC23CC4CC(CC(C4)C2)C3)Cc2ccc(C(=O)NO)cc2)cc1 | 13
Cc1ccccc1C(=O)N(CC(=O)NC12CC3CC(CC(C3)C1)C2)Cc1ccc(C(=O)NO)cc1 | 24

Just so you know, measured selectivity ratio for Cc1ccccc1C(=O)N(CC(=O)NCc1ccccc1)Cc1ccc(C(=O)NO)cc1 came out at 32

* * *

- Tested on: Plasmodium berghei
- EXPERIMENTAL_PROTOCOL: microbe, parasite or virus in culture
- Format: functional, organism-based
Label 1 (yes) when IC50 is strictly below 7000 nM; at or above that, label 0 (no).

SAMPLE_SMILES | CLASS
Cc1ccccc1C(=O)N(CC(=O)NCc1ccccc1)Cc1ccc(C(=O)NO)cc1 | 1 (yes)
CC(C)c1ccc(C(=O)N(CC(=O)NC23CC4CC(CC(C4)C2)C3)Cc2ccc(C(=O)NO)cc2)cc1 | 1 (yes)
CNC(=O)CN(Cc1ccc(C(=O)NO)cc1)C(=O)c1ccc(C(C)C)cc1 | 1 (yes)
CC(C)c1ccc(C(=O)N(Cc2ccc(C(=O)NO)cc2)C(C)(C)C(=O)NCc2ccccc2)cc1 | 0 (no)

Query block: is_below(IC50, 7000 nM) for Cc1cc(C)cc(C(=O)N(CC(=O)N2CCCCC2)Cc2ccc(C(=O)NO)cc2)c1 ?
Result block: 1 (yes)

* * *

- SYSTEM: Histone deacetylase 1 (Homo sapiens, UniProt Q13547)
- Sequence (Q13547 whole entry): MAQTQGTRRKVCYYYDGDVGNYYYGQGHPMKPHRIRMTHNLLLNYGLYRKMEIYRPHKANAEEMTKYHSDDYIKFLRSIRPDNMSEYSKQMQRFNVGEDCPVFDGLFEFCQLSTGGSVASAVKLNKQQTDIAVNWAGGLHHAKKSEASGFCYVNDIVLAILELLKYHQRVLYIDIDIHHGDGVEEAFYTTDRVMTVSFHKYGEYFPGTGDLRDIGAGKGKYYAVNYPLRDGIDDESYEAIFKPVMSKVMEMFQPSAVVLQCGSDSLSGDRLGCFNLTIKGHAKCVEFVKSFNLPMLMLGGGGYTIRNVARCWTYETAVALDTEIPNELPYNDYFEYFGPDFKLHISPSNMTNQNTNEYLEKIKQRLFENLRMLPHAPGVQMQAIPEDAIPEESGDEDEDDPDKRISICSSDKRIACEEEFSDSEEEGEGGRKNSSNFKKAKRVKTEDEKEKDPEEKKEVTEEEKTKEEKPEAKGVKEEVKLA
REPORTED_ENDPOINT: pIC50
Answers are plain numbers, as −log10 of the molar value.

Some entries whose results are on file:
SAMPLE_SMILES | pIC50
Cc1ccccc1C(=O)N(CC(=O)NCc1ccccc1)Cc1ccc(C(=O)NO)cc1 | 6.55
CC(C)c1ccc(CC(=O)N(CC(=O)NCc2ccccc2)Cc2ccc(C(=O)NO)cc2)cc1 | 6.11
Cc1ccc(C(=O)N(CC(=O)NC2CCCCC2)Cc2ccc(C(=O)NO)cc2)c(C)c1 | 6.59
CC(C)c1ccc(C(=O)N(Cc2ccc(C(=O)NO)cc2)C(C)(C)C(=O)NC2CCCCC2)cc1 | 6.01
O=C(CN(Cc1ccc(C(=O)NO)cc1)C(=O)c1cccc2ccccc12)NCc1ccccc1 | 6.89
CC(C)c1ccc(C(=O)N(Cc2ccc(C(=O)NO)cc2)C(C)(C)C(=O)NCc2ccccc2)cc1 | 6.55

Give pIC50 for each of the items listed below.
1. CC(C)c1ccc(C(=O)N(CC(=O)NC23CC4CC(CC(C4)C2)C3)Cc2ccc(C(=O)NO)cc2)cc1
2. Cc1ccc(C(=O)N(CC(=O)NCc2ccccc2)Cc2ccc(C(=O)NO)cc2)c(C)c1
3. O=C(CN(Cc1ccc(C(=O)NO)cc1)C(=O)Cc1ccccc1)NC1CCCCC1
4. CNC(=O)CN(Cc1ccc(C(=O)NO)cc1)C(=O)c1ccc(C(C)C)cc1

Result block:
[6.52, 7.22, 5.61, 7.00]

* * *

- EXPERIMENTAL_PROTOCOL: Half life in mouse liver microsomes measured upto 40 mins by LC-MS/MS analysis
- EXPERIMENTAL_SETUP: liver microsomes
For each record, write down the corresponding half-life at 40 min.
Answers are plain numbers, in min.

Please state half-life at 40 min for every compound in the list that follows.
1. CC(C)c1ccc(NC(=O)CN(Cc2ccc(C(=O)NO)cc2)C(=O)Cc2ccccc2)cc1
2. Cc1ccc(C(=O)N(CC(=O)NCc2ccccc2)Cc2ccc(C(=O)NO)cc2)c(C)c1
3. Cc1ccc(C(=O)N(CC(=O)NC2CCCCC2)Cc2ccc(C(=O)NO)cc2)c(C)c1
4. O=C(CN(Cc1ccc(C(=O)NO)cc1)C(=O)c1cccc2ccccc12)NCc1ccccc1
5. CC(C)c1ccc(C(=O)N(Cc2ccc(C(=O)NO)cc2)C(C)(C)C(=O)NC2CCCCC2)cc1
6. CNC(=O)CN(Cc1ccc(C(=O)NO)cc1)C(=O)c1ccc(C(C)C)cc1

Result block:
1: 44.3; 2: 44.8; 3: 17.9; 4: 19.3; 5: 55.6; 6: 271

* * *

- SYSTEM: Protein deacetylase HDAC6 (Homo sapiens, UniProt Q9UBN7)
- Sequence (Q9UBN7 whole entry): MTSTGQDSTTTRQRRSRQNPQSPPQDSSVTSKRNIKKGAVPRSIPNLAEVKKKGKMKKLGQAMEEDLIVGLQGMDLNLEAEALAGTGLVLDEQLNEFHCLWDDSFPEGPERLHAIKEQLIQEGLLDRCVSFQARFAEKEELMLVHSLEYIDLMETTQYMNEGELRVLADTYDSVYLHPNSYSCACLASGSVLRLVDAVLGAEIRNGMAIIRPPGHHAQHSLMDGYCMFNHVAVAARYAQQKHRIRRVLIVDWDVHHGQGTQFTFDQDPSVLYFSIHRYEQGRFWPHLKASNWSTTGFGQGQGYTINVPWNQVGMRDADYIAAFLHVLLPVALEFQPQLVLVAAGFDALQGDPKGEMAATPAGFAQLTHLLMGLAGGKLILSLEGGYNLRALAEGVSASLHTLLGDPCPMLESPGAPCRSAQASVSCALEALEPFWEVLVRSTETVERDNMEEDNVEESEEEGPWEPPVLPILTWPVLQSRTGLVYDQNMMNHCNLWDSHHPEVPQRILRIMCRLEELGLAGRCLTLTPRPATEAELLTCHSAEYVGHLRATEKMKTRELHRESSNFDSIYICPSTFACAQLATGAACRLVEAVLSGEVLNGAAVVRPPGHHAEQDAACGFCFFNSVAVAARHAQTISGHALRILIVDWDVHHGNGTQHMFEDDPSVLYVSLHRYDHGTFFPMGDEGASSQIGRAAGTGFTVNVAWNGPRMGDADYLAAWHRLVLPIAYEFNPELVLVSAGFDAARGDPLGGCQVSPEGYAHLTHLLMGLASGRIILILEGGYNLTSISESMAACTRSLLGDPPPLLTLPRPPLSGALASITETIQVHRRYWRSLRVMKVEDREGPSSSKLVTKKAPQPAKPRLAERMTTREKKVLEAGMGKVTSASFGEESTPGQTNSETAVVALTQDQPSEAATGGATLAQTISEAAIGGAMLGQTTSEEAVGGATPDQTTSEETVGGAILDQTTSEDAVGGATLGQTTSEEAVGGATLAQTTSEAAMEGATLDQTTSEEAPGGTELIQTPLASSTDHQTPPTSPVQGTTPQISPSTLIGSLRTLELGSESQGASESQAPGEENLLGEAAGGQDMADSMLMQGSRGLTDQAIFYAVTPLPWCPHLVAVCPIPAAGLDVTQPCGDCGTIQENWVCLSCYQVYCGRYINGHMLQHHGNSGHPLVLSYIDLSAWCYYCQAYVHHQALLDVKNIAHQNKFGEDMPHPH
REPORTED_ENDPOINT: pIC50
Answers are plain numbers, as −log10 of the molar value.

These solved cases illustrate the format of a correct answer.
SAMPLE_SMILES | REPORTED_ENDPOINT | ENDPOINT_VALUE
Cc1ccc(C(=O)N(CC(=O)NCc2ccccc2)Cc2ccc(C(=O)NO)cc2)c(C)c1 | pIC50 | 7.22
CC(C)c1ccc(C(=O)N(Cc2ccc(C(=O)NO)cc2)C(C)(C)C(=O)NCc2ccccc2)cc1 | pIC50 | 7.22

Please go through the list and note pIC50 for each compound.
1. Cc1ccc(C(=O)N(CC(=O)NC2CCCCC2)Cc2ccc(C(=O)NO)cc2)c(C)c1
2. Cc1ccccc1C(=O)N(CC(=O)NCc1ccccc1)Cc1ccc(C(=O)NO)cc1
3. Cc1ccccc1C(=O)N(CC(=O)NC12CC3CC(CC(C3)C1)C2)Cc1ccc(C(=O)NO)cc1
4. CNC(=O)CN(Cc1ccc(C(=O)NO)cc1)C(=O)c1ccc(C(C)C)cc1

Result block:
7.40
7.52
7.52
7.22

Report pIC50 for each item below.
1. O=C(CN(Cc1ccc(C(=O)NO)cc1)C(=O)c1cccc2ccccc12)NCc1ccccc1
2. O=C(CN(Cc1ccc(C(=O)NO)cc1)C(=O)Cc1ccccc1)NCc1ccccc1
3. Cc1cc(C)cc(C(=O)N(CC(=O)N2CCCCC2)Cc2ccc(C(=O)NO)cc2)c1
4. CC(C)c1ccc(C(=O)N(CC(=O)NC23CC4CC(CC(C4)C2)C3)Cc2ccc(C(=O)NO)cc2)cc1

Result block:
8.00
7.52
6.89
6.60

Kindly give each listed record's pIC50.
1. CC(C)c1ccc(C(=O)N(Cc2ccc(C(=O)NO)cc2)C(C)(C)C(=O)NC2CCCCC2)cc1
2. Cc1cc(C)cc(C(=O)N(CC(=O)N(C)C)Cc2ccc(C(=O)NO)cc2)c1
3. CC(C)c1ccc(CC(=O)N(CC(=O)NCc2ccccc2)Cc2ccc(C(=O)NO)cc2)cc1

Result block:
1: 6.57; 2: 6.64; 3: 7.70
